- target_under_test: rhBMP-2 (Homo sapiens, UniProt P12643)
- Construct: purchased R&D Systems 355-BM/CF
- Sequence (P12643 283-396): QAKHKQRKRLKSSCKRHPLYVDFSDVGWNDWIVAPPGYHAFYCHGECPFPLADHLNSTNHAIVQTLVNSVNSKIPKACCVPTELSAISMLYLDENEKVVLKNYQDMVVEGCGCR
- assay_overview: BMP-2 peptide binding assay (biotinylated peptide immobilized on streptavidin plate, rhBMP-2 titrated)
- measurement_setup: read-out: EC50 of BMP-2 binding to immobilized peptide
Residues, ends and D or L forms follow the SMILES beside them.
assay_endpoint: log10(EC50) (log10 of the value in nM)

INSERT INTO measurements (compound, target_under_test, assay_endpoint, result) VALUES
  ('CC(C)C[C@H](NC(=O)[C@H](C)NC(=O)[C@H](CCC(=O)O)NC(=O)[C@H](Cc1ccccc1)NC(=O)[C@H](C)NC(=O)[C@H](CC(=O)O)NC(=O)[C@H](Cc1c[nH]c2ccccc12)NC(=O)[C@H](C)NC(=O)[C@H](CO)NC(=O)[C@H](C)NC(=O)[C@@H](NC(=O)[C@@H](NC(=O)CNC(=O)[C@H](Cc1c[nH]c2ccccc12)NC(=O)[C@@H](N)CC(=O)O)C(C)C)C(C)C)C(=O)N[C@@H](CC(=O)O)C(=O)N[C@@H](C)C(=O)O [Peptide B-11] (H-DWGVVASAWDAFEALDA-OH)', 'rhBMP-2 (Homo sapiens, UniProt P12643)', 'log10(EC50)', 2.51),
  ('CC(C)C[C@H](NC(=O)[C@H](CC(=O)O)NC(=O)[C@@H](NC(=O)[C@@H](N)CO)C(C)C)C(=O)N[C@@H](Cc1ccc(O)cc1)C(=O)N[C@@H](Cc1ccccc1)C(=O)N1CCC[C@H]1C(=O)N[C@@H](CC(C)C)C(=O)N[C@@H](CCCCN)C(=O)NCC(=O)N[C@@H](CC(=O)O)C(=O)N[C@H](C(=O)N[C@H](C(=O)O)C(C)C)C(C)C [Peptide B-12] (H-SVDLYFPLKGDVV-OH)', 'rhBMP-2 (Homo sapiens, UniProt P12643)', 'log10(EC50)', 1.08),
  ('CC(C)C[C@H](NC(=O)[C@@H]1CCCN1C(=O)[C@H](Cc1ccccc1)NC(=O)[C@H](CCCNC(=N)N)NC(=O)[C@H](CC(C)C)NC(=O)[C@@H]1CCCN1C(=O)[C@H](CCC(=O)O)NC(=O)[C@@H](N)Cc1ccccc1)C(=O)N[C@@H](CCCCN)C(=O)NCC(=O)N[C@H](C(=O)N1CCC[C@H]1C(=O)N[C@H](C(=O)O)C(C)C)C(C)C [Peptide B-9] (H-FEPLRFPLKGVPV-OH)', 'rhBMP-2 (Homo sapiens, UniProt P12643)', 'log10(EC50)', 0.76),
  ('CC(C)C[C@H](NC(=O)[C@H](CO)NC(=O)[C@H](CO)NC(=O)[C@H](Cc1ccccc1)NC(=O)[C@H](C)NC(=O)[C@H](CO)NC(=O)[C@H](Cc1ccccc1)NC(=O)[C@H](CO)NC(=O)CNC(=O)CNC(=O)[C@@H](N)CC(=O)O)C(=O)N[C@H](C(=O)N[C@@H](Cc1c[nH]c2ccccc12)C(=O)N[C@@H](C)C(=O)N[C@@H](C)C(=O)N[C@@H](CC(=O)O)C(=O)N[C@@H](CO)C(=O)O)C(C)C [Peptide B-10] (H-DGGSFSAFSSLVWAADS-OH)', 'rhBMP-2 (Homo sapiens, UniProt P12643)', 'log10(EC50)', 1.41),
  ('CC(C)C[C@H](NC(=O)[C@H](C)NC(=O)[C@H](CO)NC(=O)[C@H](Cc1ccccc1)NC(=O)[C@H](CO)NC(=O)[C@@H](NC(=O)[C@H](Cc1c[nH]c2ccccc12)NC(=O)[C@H](C)NC(=O)CNC(=O)[C@H](C)NC(=O)[C@H](C)NC(=O)[C@H](C)NC(=O)[C@H](CCC(=O)O)NC(=O)CNC(=O)CN)C(C)C)C(=O)N[C@@H](CCC(=O)O)C(=O)N[C@@H](CO)C(=O)O [Peptide B-7] (H-GGEAAAGAWVSFSALES-OH)', 'rhBMP-2 (Homo sapiens, UniProt P12643)', 'log10(EC50)', 1.46),
  ('CC(C)C[C@H](NC(=O)[C@H](CO)NC(=O)[C@H](CO)NC(=O)[C@H](Cc1ccccc1)NC(=O)[C@@H](NC(=O)[C@H](CCC(=O)O)NC(=O)[C@@H](N)Cc1c[nH]c2ccccc12)C(C)C)C(=O)N[C@@H](CCC(=O)O)C(=O)N[C@@H](CO)C(=O)NCC(=O)N[C@@H](CO)C(=O)N[C@H](C(=O)NCC(=O)N[C@@H](C)C(=O)NCC(=O)N[C@@H](C)C(=O)NCC(=O)O)C(C)C [Peptide B-8] (H-WEVFSSLESGSVGAGAG-OH)', 'rhBMP-2 (Homo sapiens, UniProt P12643)', 'log10(EC50)', 0.73);
